Attribution: the M2OR odorant receptor database

# system: UniProt E9Q4X7
# Sequence (whole entry): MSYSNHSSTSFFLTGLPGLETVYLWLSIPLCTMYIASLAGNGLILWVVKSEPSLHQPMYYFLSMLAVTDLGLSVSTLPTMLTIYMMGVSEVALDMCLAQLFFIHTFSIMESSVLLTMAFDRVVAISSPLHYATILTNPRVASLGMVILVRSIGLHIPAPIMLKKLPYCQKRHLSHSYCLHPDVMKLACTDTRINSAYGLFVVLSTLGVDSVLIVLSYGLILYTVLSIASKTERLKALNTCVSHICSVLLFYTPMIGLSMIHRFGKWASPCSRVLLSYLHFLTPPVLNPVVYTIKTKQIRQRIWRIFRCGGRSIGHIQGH
# experimental-setup: stereoisomer not certain
Form entry, call: pick from 1.0 = active, 0.0 = inactive

Worked examples, 5 molecules total:
O=C(O)CCCCCCCCC(=O)O | 0.0
CCSSCC | 0.0
O=C(c1ccccc1)c1ccccc1 | 0.0
CCCCC(=O)O | 0.0
C=CCOC(=O)CCCCCC | 0.0

Ask | Can you look up the reported call for `Cc1ccccc1OC(=O)C(C)C` for me?
Reply | 0.0

Ask | Can you look up the reported call for `CCCCCC(=Cc1ccccc1)C(OC)OC` for me?
Reply | 0.0

Ask | Can you look up the reported call for `OCCCCCCCCCO` for me?
Reply | 0.0
